# target or system: OGA (Homo sapiens)
# Construct: endogenous in cells; host or cells: HEK293 cells inducible for P301L mutant human Tau (isoform 2N4R)
# assay: OGA cellular assay (ICC detection of O-GlcNAcylated proteins in HEK293 cells inducible for P301L mutant human Tau)
# Type: cell-based
# assay setup: HEK293 cells inducible for P301L mutant human Tau, 6 hours incubation, ICC O-GlcNAcylation; read-out: Cellular hOGA; pEC50 (converted)
Threshold check on EC50: strictly below 500 nM is 1 (yes); on or above 500 nM is 0 (no).

Below are worked cases with known answers.
Cc1cc(C[C@H]2CCN(C(C)c3ccc4c(c3)OCC4)C2)cc(C(F)(F)F)n1 (stereo partly drawn) [Product 6] | 0 (no)
COc1cc(C[C@H]2CCN(C(C)c3ccc4c(n3)OCCC4)C2)cc(C)n1 (mixture of isomers) [Product 86] | 0 (no)
Cc1cc(C[C@@H]2CCN(C(C)c3ccc4c(n3)OCCO4)C2)nc(C)n1 (stereo partly drawn) [Product 37] | 0 (no)
Cc1cc(O[C@@H]2CCN(C(C)c3nc4c(cc3F)OCCO4)C2)cc(C)n1 (single isomer, unassigned) [Product 41] | 0 (no)
Cc1cc(C[C@@H]2CCN([C@H](C)c3ccc4c(n3)OCCO4)C2)cc(C)n1 (single isomer, unassigned) [Product 104] | 0 (no)
Cc1cc(C[C@@H]2CCN(C(C)c3cnc4c(c3)OCCO4)C2)cc(C)n1 (single isomer, unassigned) [Product 35] | 0 (no)
Cc1cc(OC[C@H]2CCN(C(C)c3ccc4c(n3)OCCO4)C2)cc(C)n1 (stereo partly drawn) [Product 47] | 0 (no)
Cc1ccc(O[C@H]2CCN(C(C)c3nc4c(cc3F)OCCO4)C2)cn1 (stereo partly drawn) [Product 57] | 0 (no)

**Query** Is EC50 of COc1cc(C[C@@H]2CN([C@H](C)c3ccc4c(n3)OCCO4)C[C@H]2C)cc(C)n1 (stereo in doubt) [Product 122] strictly below 500 nM?
**Result** 0 (no)

**Query** Is EC50 of COc1cc(C[C@@H]2CCN([C@H](C)c3ccc4c(n3)OCCO4)C2)cc(C)n1 (single isomer, unassigned) [Product 107] strictly below 500 nM?
**Result** 0 (no)

**Query** Is EC50 of COc1cc(C[C@@H]2CCN(C(C)c3nc4c(cc3F)OCCO4)C2)cc(C)n1 (mixture of isomers) [Product 90] strictly below 500 nM?
**Result** 1 (yes)

**Query** Is EC50 of Cc1cc(C[C@@H]2CCN(C(C)c3cnc4c(c3)OCCN4)C2)cc(C)n1 (mixture of isomers) [Product 118] strictly below 500 nM?
**Result** 0 (no)

**Query** Is EC50 of Cc1cc(C[C@H]2CCN(C(C)c3cc4c(cc3F)OCCO4)C2)cc(C(F)(F)F)n1 (stereo partly drawn) [Product 7] strictly below 500 nM?
**Result** 1 (yes)

**Query** Is EC50 of COc1cc(C[C@H]2CN([C@H](C)c3ccc4c(n3)OCCO4)C[C@@H]2C)cc(C)n1 (stereo in doubt) [Product 121] strictly below 500 nM?
**Result** 0 (no)

**Query** Is EC50 of Cc1ncc(O[C@@H]2CCN(C(C)c3ccc4c(n3)OCCO4)C2)cn1 (stereo partly drawn) [Product 62] strictly below 500 nM?
**Result** 0 (no)

**Query** Is EC50 of COc1cc(C[C@H]2CCN(C(C)c3ccc4c(c3)OCC4)C2)cc(C)n1 (stereo partly drawn) [Product 8] strictly below 500 nM?
**Result** 0 (no)

**Query** Is EC50 of Cc1cc(C[C@H]2CN(C(C)c3ccc4c(n3)OCCO4)C[C@@H]2C)cc(C)n1 (mixture of isomers) [Product 61] strictly below 500 nM?
**Result** 0 (no)

**Query** Is EC50 of Cc1cc(O[C@@H]2CCN(C(C)c3ccc4c(n3)OCCO4)C2)cc(C)n1 (mixture of isomers) [Product 73] strictly below 500 nM?
**Result** 0 (no)

**Query** Is EC50 of Cc1cc(C[C@H]2CCN([C@@H](C)c3cc4c(cc3F)OCCO4)C2)cc(C)n1 [Product 32] strictly below 500 nM?
**Result** 1 (yes)

**Query** Is EC50 of COc1cc(C[C@H]2CCN(C(C)c3cc4c(cc3F)OCCO4)C2)cc(C)n1 (single isomer, unassigned) [Product 10] strictly below 500 nM?
**Result** 0 (no)

**Query** Is EC50 of COc1cc(C[C@H]2CCN(C(C)c3nc4c(cc3F)CCO4)C2)cc(C)n1 (single isomer, unassigned) [Product 84] strictly below 500 nM?
**Result** 1 (yes)

**Query** Is EC50 of Cc1cc(C[C@H]2CCN(C(C)c3cnc4c(c3)OCCN4)C2)cc(C)n1 (mixture of isomers) [Product 80] strictly below 500 nM?
**Result** 1 (yes)

**Query** Is EC50 of Cc1cc(OC[C@]2(C)CCN([C@H](C)c3ccc4c(n3)OCCO4)C2)cc(C)n1 (single isomer, unassigned) [Product 100] strictly below 500 nM?
**Result** 0 (no)

**Query** Is EC50 of COc1cc(C[C@@H]2CCN([C@@H](C)c3cc4c(cc3F)OCCO4)C2)cc(C)n1 [Product 43] strictly below 500 nM?
**Result** 1 (yes)

**Query** Is EC50 of Cc1cc(CO[C@@H]2CCN(C(C)c3ccc4c(n3)OCCO4)C2)cc(C)n1 (mixture of isomers) [Product 115] strictly below 500 nM?
**Result** 0 (no)

**Query** Is EC50 of COc1cc(C[C@H]2CN(C(C)c3ccc4c(n3)OCCO4)C[C@@H]2C)cc(C)n1 (mixture of isomers) [Product 120] strictly below 500 nM?
**Result** 0 (no)
